Measurement Description: amyloid nucleation score (Sup35N fusion, yeast selection) (log enrichment); library NNK2; higher = more nucleation; inactive = no reads after selection;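 further: zero at mode of non-aggregating sequences after 7 days selection at 30°C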
Metric: amyloid nucleation score

[[record]]
macromolecule_sequence = "ISLSIWQPRNSDGWKQEPAP"
result = 2.41

[[record]]
macromolecule_sequence = "SSFCKPLKVRWLGVIVQLSV"
result = -0.872

[[record]]
macromolecule_sequence = "RCVGNYIWIKAFPMCLMTRC"
result = -0.825

[[record]]
macromolecule_sequence = "DEWPWAVPSGVSRGCAGSVY"
result = 0.231

[[record]]
macromolecule_sequence = "LLCMVIMVGFYSRSAGNTDQ"
result = 0.696

[[record]]
macromolecule_sequence = "VVSWCVEVNPRERAKVDMCR"
result = 4.25

[[record]]
macromolecule_sequence = "CDVRSPSF"
result = -1.02

[[record]]
macromolecule_sequence = "LRIICMSTMWRKCFRGIATA"
result = -0.195

[[record]]
macromolecule_sequence = "LFRCIKDMAY"
result = 0.202


* * *

Measurement Description: amyloid nucleation score (Sup35N fusion, yeast selection) (log enrichment); library NNK3; higher = more nucleation; inactive = no reads after selection
Metric: amyloid nucleation score

[[record]]
substance = "YLTVWFTKKLCVLFLFNIWK"
metric = "amyloid nucleation score"
result = "inactive"

[[record]]
substance = "FKPWLYFGRPMAQLRDDCQV"
metric = "amyloid nucleation score"
result = "inactive"

[[record]]
substance = "ICLCLHCIYSRSITSAVLSA"
metric = "amyloid nucleation score"
result = "inactive"

[[record]]
substance = "AAETLTRSWLLRSARLMKDG"
metric = "amyloid nucleation score"
result = -0.233

[[record]]
substance = "ASNYYKCCCSNWLCCLMSDR"
metric = "amyloid nucleation score"
result = 2.91

[[record]]
substance = "IHLSCMIIKRHLSRYCDQSR"
metric = "amyloid nucleation score"
result = "inactive"

[[record]]
substance = "WCSGLPGLNRWSSTIPICCY"
metric = "amyloid nucleation score"
result = "inactive"

[[record]]
substance = "VARSSQSISSMHMTMRYKCA"
metric = "amyloid nucleation score"
result = "inactive"

[[record]]
substance = "ALARELIFLLCMNVRLMGFK"
metric = "amyloid nucleation score"
result = "inactive"

[[record]]
substance = "TDVIYVDGPLA"
metric = "amyloid nucleation score"
result = "inactive"

[[record]]
substance = "RNGLSIGVNVGHLT"
metric = "amyloid nucleation score"
result = "inactive"

[[record]]
substance = "IETAGSTHSSTWGDYSNRLC"
metric = "amyloid nucleation score"
result = "inactive"

[[record]]
substance = "FRSGSIDCSKLWILFY"
metric = "amyloid nucleation score"
result = "inactive"

[[record]]
substance = "NDKYWTIHMTSLGQRLIFAE"
metric = "amyloid nucleation score"
result = 1.25

[[record]]
substance = "CMAIVATATRSGPVGRSLAK"
metric = "amyloid nucleation score"
result = 0.508

[[record]]
substance = "DSSSDGSLTYDRGRSRSLFE"
metric = "amyloid nucleation score"
result = "inactive"

[[record]]
substance = "RDRLVWDRCRTVAPSTGVVR"
metric = "amyloid nucleation score"
result = "inactive"

[[record]]
substance = "GWSDRFSMLYSFLLLLWKSP"
metric = "amyloid nucleation score"
result = "inactive"

[[record]]
substance = "SVFCMLYLFWLSFLIVLLLM"
metric = "amyloid nucleation score"
result = 1.59

[[record]]
substance = "NYDKCSDPRRRRRLFFHLYD"
metric = "amyloid nucleation score"
result = "inactive"

[[record]]
substance = "LAPHLSTIMCIEHNS"
metric = "amyloid nucleation score"
result = "inactive"

[[record]]
substance = "CRNSEKVWDPQRTVRALSRF"
metric = "amyloid nucleation score"
result = "inactive"

[[record]]
substance = "YRLSLRH"
metric = "amyloid nucleation score"
result = "inactive"

[[record]]
substance = "SAFTFPTLWIFTNPTVHLLF"
metric = "amyloid nucleation score"
result = "inactive"

[[record]]
substance = "GVLMNHIELL"
metric = "amyloid nucleation score"
result = "inactive"

[[record]]
substance = "HIVNLFRLYYIAMWGSVCHV"
metric = "amyloid nucleation score"
result = "inactive"

[[record]]
substance = "IYTVWMAKGVTPVQKGPSRY"
metric = "amyloid nucleation score"
result = "inactive"

[[record]]
substance = "VDRYLCNFSGGTLYGSLSQD"
metric = "amyloid nucleation score"
result = "inactive"

[[record]]
substance = "VLSVWDHLYLRNSSCAPTYR"
metric = "amyloid nucleation score"
result = -0.641

[[record]]
substance = "SQSLPFVCA"
metric = "amyloid nucleation score"
result = "inactive"

[[record]]
substance = "QSLGVTRFWGLSLLLQNFLP"
metric = "amyloid nucleation score"
result = "inactive"

[[record]]
substance = "LLPLFHNVIIGNCLFGCEPP"
metric = "amyloid nucleation score"
result = 1.62

[[record]]
substance = "YFNYSLFISVCS"
metric = "amyloid nucleation score"
result = "inactive"

[[record]]
substance = "GNYRLSLHVVL"
metric = "amyloid nucleation score"
result = 1.21

[[record]]
substance = "MYRCKKGGLCKLSGCTSKAL"
metric = "amyloid nucleation score"
result = "inactive"

[[record]]
substance = "PQDKRASACRVWAPNKNGRG"
metric = "amyloid nucleation score"
result = "inactive"

[[record]]
substance = "HNISAIYDRNRF"
metric = "amyloid nucleation score"
result = "inactive"

[[record]]
substance = "HGFSMTFRLLTFFHGKNYCM"
metric = "amyloid nucleation score"
result = "inactive"

[[record]]
substance = "LNEFIKYLDICKFFSCSGRN"
metric = "amyloid nucleation score"
result = 1.61

[[record]]
substance = "GVVVWYSGDWTECMVVNRCD"
metric = "amyloid nucleation score"
result = 0.78

[[record]]
substance = "TNGKEWWNCVYGERTVNAFA"
metric = "amyloid nucleation score"
result = "inactive"

[[record]]
substance = "PHMQCLINF"
metric = "amyloid nucleation score"
result = "inactive"

[[record]]
substance = "RVLYSFQCAFLMDKETSSGR"
metric = "amyloid nucleation score"
result = "inactive"

[[record]]
substance = "SLWSVEDSGYKC"
metric = "amyloid nucleation score"
result = "inactive"

[[record]]
substance = "KSKNPIIVFTYRM"
metric = "amyloid nucleation score"
result = 1.2

[[record]]
substance = "NPVLWVGRAF"
metric = "amyloid nucleation score"
result = "inactive"

[[record]]
substance = "VGSLVHLGLGWIRTLLLYGV"
metric = "amyloid nucleation score"
result = "inactive"

[[record]]
substance = "YVFGNWLLCFEHTKMH"
metric = "amyloid nucleation score"
result = 1.1

[[record]]
substance = "NIVISYPP"
metric = "amyloid nucleation score"
result = 0.749

[[record]]
substance = "TQDRYAISIRLVSTQLKLMS"
metric = "amyloid nucleation score"
result = "inactive"

[[record]]
substance = "WSGHIGVLRTTSSQQWRVRR"
metric = "amyloid nucleation score"
result = "inactive"

[[record]]
substance = "SSLMRIHLPLVYQ"
metric = "amyloid nucleation score"
result = "inactive"

[[record]]
substance = "IMVWLRARSITYNQVDDRGS"
metric = "amyloid nucleation score"
result = "inactive"

[[record]]
substance = "NFFITTDPPGFR"
metric = "amyloid nucleation score"
result = "inactive"

[[record]]
substance = "FSPVSQYWMKGFTYTGNRAR"
metric = "amyloid nucleation score"
result = "inactive"

[[record]]
substance = "FNDYCSIKKSLTKSMYDLNG"
metric = "amyloid nucleation score"
result = "inactive"

[[record]]
substance = "SGWKQSGS"
metric = "amyloid nucleation score"
result = "inactive"

[[record]]
substance = "YFMVRWYCAGLDILCGLQEK"
metric = "amyloid nucleation score"
result = "inactive"

[[record]]
substance = "CVMGVG"
metric = "amyloid nucleation score"
result = 0.312

[[record]]
substance = "DWLDLSGVSCH"
metric = "amyloid nucleation score"
result = -0.11

[[record]]
substance = "KGGSVGHQQLYMCWQYNPVF"
metric = "amyloid nucleation score"
result = "inactive"

[[record]]
substance = "DRQLDDGGTRNKFIKCLVAR"
metric = "amyloid nucleation score"
result = "inactive"

[[record]]
substance = "LNQGSYYGMARFPL"
metric = "amyloid nucleation score"
result = "inactive"

[[record]]
substance = "WVYNGIIYGRLFMDLLWTGL"
metric = "amyloid nucleation score"
result = "inactive"

[[record]]
substance = "SDMCMVLFLLTVYFVMSGRC"
metric = "amyloid nucleation score"
result = 0.133

[[record]]
substance = "DLSREQLGCVVGVQAECMKG"
metric = "amyloid nucleation score"
result = 0.37

[[record]]
substance = "GRLSVFLGYIHGRCYGALGR"
metric = "amyloid nucleation score"
result = -0.635

[[record]]
substance = "LVNCISIVLFPECNKSLLHR"
metric = "amyloid nucleation score"
result = 2.35

[[record]]
substance = "QRIEYA"
metric = "amyloid nucleation score"
result = "inactive"

[[record]]
substance = "PMVISHMGLFFLKVGISR"
metric = "amyloid nucleation score"
result = "inactive"

[[record]]
substance = "YTVMFLGANYSYVVKSMSRS"
metric = "amyloid nucleation score"
result = "inactive"

[[record]]
substance = "NVWQFRFANRSCWFRLDIVC"
metric = "amyloid nucleation score"
result = "inactive"

